system: 05-732 human bone tumor; experiment: Mouse transplant tumor, 05-732 human osteosarcoma; conditions: 05-732 human osteosarcoma; 125 mg/kg once a day for 7 days; animal weight at end

molecule	test_target	weight end
CC(=O)OCC1OC(OP(=O)(O)N(CCCl)CCCl)CC(Br)C1OC(C)=O (centres unmarked)	05-732 human bone tumor	18.3
CC(=O)OCC1OC(OP(=O)(NCCCl)NCCCl)C(Br)CC1OC(C)=O (single isomer, unassigned)	05-732 human bone tumor	18.4
CC(=O)OCC1OC(OP(=O)(O)N(CCCl)CCCl)C(Br)CC1OC(C)=O (centres unmarked)	05-732 human bone tumor	18.4
CC(=O)OCC1OC(OP(=O)(NCCCl)NCCCl)CC(Br)C1OC(C)=O (single isomer, unassigned)	05-732 human bone tumor	18.6
CC(=O)OCC1OC(Br)C(Br)CC1OC(C)=O (single isomer, unassigned)	05-732 human bone tumor	18.3
